target: Nucleosome assembly protein 1 (NAP1) (Plasmodium knowlesi); test: Thermal shift (thermal melt) assay, Sypro orange; type: binding, P. knowlesi; conditions: approximate, computed from the thermal shift; read-out: KD (Approx)
Sequence (A0A384KYS3 entry or part of it): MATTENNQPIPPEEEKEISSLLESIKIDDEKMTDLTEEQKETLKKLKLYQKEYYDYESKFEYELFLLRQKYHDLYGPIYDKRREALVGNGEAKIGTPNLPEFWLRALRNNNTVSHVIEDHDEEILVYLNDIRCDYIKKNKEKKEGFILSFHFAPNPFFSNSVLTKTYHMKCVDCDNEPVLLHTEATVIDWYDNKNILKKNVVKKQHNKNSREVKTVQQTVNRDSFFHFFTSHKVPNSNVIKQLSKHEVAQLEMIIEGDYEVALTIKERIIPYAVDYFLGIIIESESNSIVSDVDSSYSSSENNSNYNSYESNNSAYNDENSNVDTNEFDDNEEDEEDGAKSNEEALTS
quantity.name: pKd
Answers are plain numbers, as −log10 of the molar value.

Illustrative cases are given below, each with its answer.
INSERT INTO measurements (compound, result_number) VALUES
  ('Nc1ccn([C@@H]2O[C@H](CO)[C@@H](O)[C@@H]2O)c(=O)n1', 3.74),
  ('Cc1nc2c(O)cccc2cc1CO', 3.43),
  ('O=C1c2cc(O)c(O)cc2OC(c2ccc(O)c(O)c2)C1O (stereo not shown)', 3.74);

Next item in the queue.
What value of measured pKd is listed for O=C1C[C@@H](c2ccc(O)cc2)Oc2cc(O)cc(O)c21 ? 3.65

====

target: Tryptophanyl tRNA synthetase (TrpRS) (Homo sapiens); assay: Thermal shift (thermal melt) assay, Sypro orange; type: binding, H. sapiens; settings: approximate, computed from the thermal shift; read-out: KD
Sequence (P23381 whole entry): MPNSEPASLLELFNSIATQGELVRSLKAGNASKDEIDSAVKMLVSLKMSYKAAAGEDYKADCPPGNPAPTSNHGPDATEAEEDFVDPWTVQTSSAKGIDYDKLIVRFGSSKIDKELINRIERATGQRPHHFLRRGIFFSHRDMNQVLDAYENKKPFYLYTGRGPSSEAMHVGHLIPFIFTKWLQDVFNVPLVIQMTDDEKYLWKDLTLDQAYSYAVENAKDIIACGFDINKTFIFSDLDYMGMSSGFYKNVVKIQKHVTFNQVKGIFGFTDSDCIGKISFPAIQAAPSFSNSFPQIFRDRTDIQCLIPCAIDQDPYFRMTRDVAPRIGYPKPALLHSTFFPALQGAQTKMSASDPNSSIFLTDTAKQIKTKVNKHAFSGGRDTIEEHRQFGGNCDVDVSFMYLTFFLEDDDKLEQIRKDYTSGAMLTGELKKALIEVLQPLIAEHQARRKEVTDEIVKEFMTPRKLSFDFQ
Give Kd for every item shown.
One number for each entry, in µM.

INSERT INTO measurements (chem_smiles, measurement_target, quantity_name, result_number) VALUES
  ('Nc1ccc(NC(=O)c2ccc(C(=O)Nc3ccc(N)cc3)cc2)cc1', 'Tryptophanyl tRNA synthetase (TrpRS) (Homo sapiens)', 'Kd', 39.6);

Next item in the queue.
What value of measured Kd is listed for CCOc1ccc(NC(=O)c2cc3ccccc3cc2O)cc1 ? 7.7

====

Give Q (quality score) for every item shown.
target: 1000006: catalytic domain of protein tyrosine phosphatase (2G59) (Homo sapiens, UniProt Q16827); construct: the catalytic domain of PTP from H. sapiens (PDB ID: 2G59) (1000006); New York structural genomics consortium (gift); assay: Thermal shift (thermal melt) assay, Sypro orange; format: binding, H. sapiens; conditions: Table S4; protein 1000006; ratio ΔFmelt/ΔFtotal
Sequence (Q16827 938-1195 limits assumed): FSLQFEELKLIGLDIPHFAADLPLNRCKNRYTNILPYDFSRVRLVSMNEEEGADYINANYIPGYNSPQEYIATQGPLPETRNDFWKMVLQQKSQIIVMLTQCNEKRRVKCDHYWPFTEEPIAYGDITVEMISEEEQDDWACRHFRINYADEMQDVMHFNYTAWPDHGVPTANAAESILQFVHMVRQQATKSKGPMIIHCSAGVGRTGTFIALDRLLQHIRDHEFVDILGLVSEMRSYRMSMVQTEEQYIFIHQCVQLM
Numbers only.

INSERT INTO measurements (compound, result_number) VALUES
  ('Nc1cc(-c2ccccc2)ccc1O [NSC 7950]', 0.3),
  ('COc1cc(C(=O)C(=O)c2ccc(O)c(OC)c2)ccc1O [NSC 16722]', 0.4),
  ('CCOc1ccc(NC(=O)c2cc3ccccc3cc2O)cc1 [NSC 50690]', 0.8),
  ('Nc1cc([N+](=O)[O-])ccc1Nc1ccc(O)cc1 [NSC 92794]', 0.004),
  ('Nc1ccc(Oc2ccc(N)c([N+](=O)[O-])c2)cc1[N+](=O)[O-] [NSC 133351]', 0.1);

Next item in the queue.
What value of measured Q (quality score) is listed for COc1cc(C(=O)C(=O)c2cc(OC)c(O)c(OC)c2)cc(OC)c1O [NSC 16736] ? 0.4

====

Give Q (quality score) for every item shown.
molecular target: E. coli dihydrofolate reductase (DHFR) (Escherichia coli); assay: biochemical; assay type: binding; conditions: Table S3; ratio ΔFmelt/ΔFtotal of the melting curve
Sequence (P0ABQ4 whole entry): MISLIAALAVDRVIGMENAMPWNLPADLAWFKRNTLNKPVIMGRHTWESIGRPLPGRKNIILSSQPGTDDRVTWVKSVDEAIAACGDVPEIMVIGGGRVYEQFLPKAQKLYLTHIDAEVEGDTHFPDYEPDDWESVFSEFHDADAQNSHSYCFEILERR
Give bare numbers.

INSERT INTO assay_data (compound, measurement_target, quantity_name, result_number) VALUES
  ('Nc1nc(N)c2c(ccc3[nH]ccc32)n1 [NSC 339578, reference compound]', 'E. coli dihydrofolate reductase (DHFR) (Escherichia coli)', 'Q (quality score)', 1.4),
  ('C#CCC(Cc1cnc2nc(N)nc(N)c2n1)c1ccc(C(=O)N[C@@H](CCC(=O)O)C(=O)O)cc1 (some centres unmarked) [NSC 754230, pralatrexate, reference compound]', 'E. coli dihydrofolate reductase (DHFR) (Escherichia coli)', 'Q (quality score)', 0.1),
  ('Nc1ccc(-c2nc3nc(N)nc(N)c3nc2-c2ccc(N)cc2)cc1 [NSC 61642, reference compound]', 'E. coli dihydrofolate reductase (DHFR) (Escherichia coli)', 'Q (quality score)', 0.6);

Dear colleague, could you please provide Q (quality score) for the compounds listed below?
1. O=C(Nc1ccc(C(=O)O)c(O)c1)c1ccccc1
2. C1=Cc2ccccc2Nc2ccccc21

[0.6, 0.6]

Dear colleague, could you please provide Q (quality score) for the compounds listed below?
1. COc1cc(NCc2ccccc2O)c2ncccc2c1
2. CCOc1ccc(NC(=O)c2cc3ccccc3cc2O)cc1

1.1
0.3

What value of measured Q (quality score) is listed for Nc1nc2[nH]cc(CCc3ccc(C(=O)N[C@@H](CCC(=O)O)C(=O)O)cc3)c2c(=O)[nH]1 [NSC 698037, pemetrexed, reference compound] ? 1.3

====

tested on: HCT-116 colon carcinoma cell line; experiment: Cytotoxic assay on cancer cell line; format: cell-based; details: Homo sapiens, HCT-116, inhibitory concentration for 50% growth inhibition; read-out: HCT-116 (IC-50)
Give log10 IC50 for every item shown.
In our notation, the value equals log10 of IC50 in µg/mL.

Illustrative cases are given below, each with its answer.
INSERT INTO measurements (compound, result_number) VALUES
  ('Nc1ccc(Cn2ccc3c4c(N)nc(N)nc4ccc32)cc1 [NSC 309401]', -0.89),
  ('Nc1nc(N)c2c(ccc3[nH]ccc32)n1 [NSC 339578, reference compound]', 0.79),
  ('CN(Cc1cnc2nc(N)nc(N)c2n1)c1ccc(C(=O)N[C@@H](CCC(=O)O)C(=O)O)cc1 [NSC 740, methotrexate]', -1.32);

Dear colleague, could you please provide log10 IC50 for the compounds listed below?
1. CCCCC(=O)OCC(=O)[C@]1(O)Cc2c(O)c3c(c(O)c2[C@@H](O[C@H]2C[C@H](NC(=O)C(F)(F)F)[C@H](O)[C@H](C)O2)C1)C(=O)c1c(OC)cccc1C3=O [NSC 246131, valrubicin, reference compound]
2. CCN(CC)CCNC(=O)c1c(C)[nH]c(/C=C2\C(=O)Nc3ccc(F)cc32)c1C [NSC 750690, Sunitinib, reference compound]

1. -1.62
2. 0.04

====

biological target: 1000001: Carboxy-terminus phosphatase domain of protein tyrosine phosphatase (2NV5) (Mus musculus); construct: The C-terminal phosphatase domain from R. norvegicus (PDB ID: 2NV5) (1000001); New York structural genomics consortium (gift); assay: Thermal shift (thermal melt) assay, Sypro orange; assay type: binding, M. musculus; design: key: Q = ΔFmelt/ΔFtotal; 1 = high-quality curve, 0 = no transition; settings: Table S4; protein 1000001; ratio ΔFmelt/ΔFtotal
Sequence (Q64487 1331-1621): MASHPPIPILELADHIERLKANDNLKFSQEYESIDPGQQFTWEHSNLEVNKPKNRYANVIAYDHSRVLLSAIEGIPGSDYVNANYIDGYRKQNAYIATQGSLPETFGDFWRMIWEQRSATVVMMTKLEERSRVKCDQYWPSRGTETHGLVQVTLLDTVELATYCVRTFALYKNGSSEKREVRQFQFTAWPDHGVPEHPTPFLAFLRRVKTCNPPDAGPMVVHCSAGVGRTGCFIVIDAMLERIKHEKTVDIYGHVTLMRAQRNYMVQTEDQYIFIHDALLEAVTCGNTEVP
Strictly below 0.04 in Q (quality score): label 1. Otherwise: label 0.

INSERT INTO measurements (molecule, class_label) VALUES
  ('Oc1cccc2nc3ccccc3nc12', 'label 0');

Lab note: confirm whether the reported Q (quality score) for this molecule is below 0.04, equality not counting. molecule: CC(=O)c1cc(O)c2ccccc2c1O label 1

Request: CCOc1ccc(Nc2c3ccccc3nc3ccccc23)cc1 label 1

Request: O=S(=O)(O)c1ccc(N=Nc2ccccc2)cc1 label 0

Request: COc1cc(N=Nc2ccccc2C(=O)O)ccc1O label 0

Request: NS(=O)(=O)c1ccc(N=Nc2c(O)c(C(=O)O)cc3ccccc23)cc1 label 1

Request: CCCCC(=O)OCC(=O)[C@]1(O)Cc2c(O)c3c(c(O)c2[C@@H](O[C@H]2C[C@H](NC(=O)C(F)(F)F)[C@H](O)[C@H](C)O2)C1)C(=O)c1c(OC)cccc1C3=O [NSC 246131, valrubicin, reference compound] label 0

Request: O=C(O)c1cc(O)ccc1N=Nc1ccccc1 label 0

Request: O=C(O)Cc1ccc(N=Nc2c(O)c(C(=O)O)cc3ccccc23)cc1 label 1

====

biological target: 1000006: catalytic domain of protein tyrosine phosphatase (2G59) (Homo sapiens); construct: the catalytic domain of PTP from H. sapiens (PDB ID: 2G59) (1000006); New York structural genomics consortium (gift); assay: Thermal shift (thermal melt) assay, Sypro orange; assay type: binding, H. sapiens; details: Table S4; protein 1000006; computed from the thermal shifts obtained; read-out: KD (Approx)
Give Kd for every item shown.

INSERT INTO assay_data (compound, measurement_target, quantity_name, result) VALUES
  ('Nc1ccc(Oc2ccc(N)c([N+](=O)[O-])c2)cc1[N+](=O)[O-] [NSC 133351]', '1000006: catalytic domain of protein tyrosine phosphatase (2G59) (Homo sapiens)', 'Kd', '~0.168 µM'),
  ('COc1cc(C(=O)C(=O)c2ccc(O)c(OC)c2)ccc1O [NSC 16722]', '1000006: catalytic domain of protein tyrosine phosphatase (2G59) (Homo sapiens)', 'Kd', '~107 µM'),
  ('Nc1cc([N+](=O)[O-])ccc1Nc1ccc(O)cc1 [NSC 92794]', '1000006: catalytic domain of protein tyrosine phosphatase (2G59) (Homo sapiens)', 'Kd', '~162 µM');

Dear colleague, could you please provide Kd for the compounds listed below?
1. Nc1cc(-c2ccccc2)ccc1O [NSC 7950]
2. CCOc1ccc(NC(=O)c2cc3ccccc3cc2O)cc1 [NSC 50690]

1. ~271 µM
2. ~51.5 µM

Cited source: paper PMC4038399
